FYI, the data here is from patent US20240270758A1.

test system: AGS cells (KRAS^G12D mutation); test: Cell proliferation inhibition assay (3D, CellTiter-Glo), AGS; assay type: cell-based, human; settings: 3D cell model, 5 days
pIC50: −log10 of the molar value.
resultType: pIC50

Examples with their reported pIC50 follow.
C#Cc1cccc2cc(N)cc(-c3ncc4c(N5C[C@H]6CC[C@@H](C5)N6)nc(OCC56CC(=C)CN5CC(=C)C6)nc4c3F)c12 [Example Z206]: 7.70
C#Cc1cccc2cc(O)cc(-c3ncc4c(N5C[C@H]6CC[C@@H](C5)N6)nc(OCC56CC(=C)CN5CC(=C)C6)nc4c3F)c12 [Example Z21]: 8.19

I. C#Cc1cccc2cc(O)cc(-c3ccc4c(N5CC6CCC(C5)N6)nc(OCC56CCCN5CC(=C)C6)nc4c3F)c12 (stereo not shown) [Example Z99]
II. C#Cc1cccc2cc(O)cc(-c3ncc4c(N5CC6CCC(C5)N6)nc(OCC56CCCN5CCC(=C)C6)nc4c3F)c12 (stereo not shown) [Example Z18]
Ask: Which item exceeds the other in pIC50, I or II ? // return label of chosen record
Result: I
